Numbers sourced from patent US20210070748A1.

# targetEntity: LCK (Homo sapiens, UniProt P06239)
# Sequence (P06239 whole entry): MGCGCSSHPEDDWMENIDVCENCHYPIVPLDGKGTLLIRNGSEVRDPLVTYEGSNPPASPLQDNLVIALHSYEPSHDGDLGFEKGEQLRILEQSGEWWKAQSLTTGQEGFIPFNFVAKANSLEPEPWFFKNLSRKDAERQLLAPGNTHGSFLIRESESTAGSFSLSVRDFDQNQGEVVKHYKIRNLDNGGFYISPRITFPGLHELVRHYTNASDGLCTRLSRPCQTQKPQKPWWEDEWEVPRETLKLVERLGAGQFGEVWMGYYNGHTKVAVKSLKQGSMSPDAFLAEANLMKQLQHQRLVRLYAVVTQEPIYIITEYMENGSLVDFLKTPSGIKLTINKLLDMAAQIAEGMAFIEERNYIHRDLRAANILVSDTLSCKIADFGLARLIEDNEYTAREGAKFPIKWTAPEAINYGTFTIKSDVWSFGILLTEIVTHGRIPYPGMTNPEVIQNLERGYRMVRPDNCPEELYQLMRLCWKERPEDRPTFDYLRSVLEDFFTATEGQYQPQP
# assaySummary: Inhibition of a panel of kinases, in vitro HotSpot kinase assay: LCK
# Assay type: biochemical
# measurementParameters: E compounds, Table 17; read-out: IC50 LCK
pIC50: −log10 of the molar value.
Here, each record is paired with measured pIC50 data.

molecule | targetEntity | pIC50
Cc1cc(Nc2nc(N3CC[C@H](O)[C@@H](N4CCC[C@@H](Nc5cc(Cl)cc(C(F)(F)F)c5)C4=O)C3)nnc2C(N)=O)sn1 [Example E-10] | LCK (Homo sapiens, UniProt P06239) | > 8.00
C=CC(=O)N1CCC[C@@H](Nc2nnc(C(N)=O)c(Nc3ccc(C(C)(C)C)cc3)n2)C1 [Example E-24] | LCK (Homo sapiens, UniProt P06239) | 6.00 to 7.00
C[C@@H]1[C@H](NC(=O)c2ccc(C(C)(C)N3CCCC3)cc2)CCCN1c1cnc(C(N)=O)c(Nc2cnn(C)c2)n1 [Example E-143] | LCK (Homo sapiens, UniProt P06239) | 7.00 to 8.00
C=CC(=O)N1CCC[C@@H](Nc2nnc(C(N)=O)c(Nc3cc(C)ns3)n2)C1 [Example E-11] | LCK (Homo sapiens, UniProt P06239) | 7.00 to 8.00
C=CC(=O)N1CCC[C@@H](Nc2cnc(C(N)=O)c(Nc3ccc(C4CCN(C5CCCC5)CC4)cc3)n2)C1 [Example E-108] | LCK (Homo sapiens, UniProt P06239) | 7.00 to 8.00
C=CC(=O)N1CCC[C@@H](Nc2cnc(C(N)=O)c(Nc3ccc(C4CCN(C5CCCC5)CC4)cc3)n2)[C@H]1C [Example E-99] | LCK (Homo sapiens, UniProt P06239) | 7.00 to 8.00
C[C@@H]1[C@H](NC(=O)c2ccc(C3CC3)cc2)CCCN1c1cnc(C(N)=O)c(Nc2ccc(N3CCN(C4COC4)C[C@@H]3C)cc2)n1 [Example E-142] | LCK (Homo sapiens, UniProt P06239) | 7.00 to 8.00
C=CC(=O)N[C@@H]1CCCN(c2cnc(C(N)=O)c(Nc3cc(C)ns3)n2)[C@@H]1C [Example E-97] | LCK (Homo sapiens, UniProt P06239) | 6.00 to 7.00
C=CC(=O)N1CC[C@@H](N(C)c2cnc(C(N)=O)c(Nc3ccc(C4(C)CCN(C5CCCC5)CC4)cc3)n2)C1 [Example E-106] | LCK (Homo sapiens, UniProt P06239) | 7.00 to 8.00
C=CC(=O)N[C@@H]1CCCN(c2cnc(C(N)=O)c(Nc3ccc(C4CCN(C5CC5)CC4)cc3)n2)[C@@H]1C [Example E-93] | LCK (Homo sapiens, UniProt P06239) | 7.00 to 8.00

Now let's try a different one.
Ask: # get_value(readout='pIC50', item= C=CC(=O)N1CCC[C@@H](N(C)c2cnc(C(N)=O)c(Nc3ccc(C4(C)CCN(C5CCCC5)CC4)cc3)n2)C1 [Example E-103] )
Result: > 8.00
